test system: HSPB1^S135F CMT2F motor neurons (CMT2F MNs); experiment: Mitochondrial axon transport assay (MATA) in HSPB1^S135F CMT2F motor neurons; format: cell-based, human; settings: axonal mitochondrial velocity, 300 nM, three hours, WT MNs group set to 1
Rule for this label: Y means Relative velocity (Mean ± SEM) is less than 1; N means Relative velocity (Mean ± SEM) is at least 1.

Answered examples (4):
[[record]]
molecule = "O=C(N1CCS(=O)(=O)CC1)N(Cc1ccc(-c2nnc(C(F)F)o2)cn1)c1cccc(Cl)c1 [Compound 239]"
label_value = "N"

[[record]]
molecule = "O=C(N1CCOCC1)N(Cc1ccc(-c2nnc(C(F)F)o2)cn1)c1ccc(F)c(Cl)c1 [Compound 232]"
label_value = "Y"

[[record]]
molecule = "O=C(N1CCS(=O)(=O)CC1)N(Cc1ccc(-c2nnc(C(F)F)o2)cc1F)c1cccc(F)c1 [Compound 286]"
label_value = "Y"

[[record]]
molecule = "O=C(N1CCS(=O)(=O)CC1)N(Cc1ccc(-c2nnc(C(F)F)o2)cn1)c1ccccc1 [Compound 43]"
label_value = "N"


Now take the following molecule into account.
INPUT: Regarding O=C(N1CCOCC1)N(Cc1ccc(-c2nnc(C(F)F)o2)cn1)c1ccccc1 [Compound 243] , kindly confirm whether its Relative velocity (Mean ± SEM) is beneath 1.
OUTPUT: N

These measurements were taken from patent US20240366623A1.
